Reference source: ChEMBL document CHEMBL1121623

# measurementTarget: Prothrombin (Bos taurus, UniProt P00735)
# testDescription: Concentration at which the clotting time was prolonged by twice that of the control by inhibiting thrombin
# Type: functional
# testSettings: read-out: I50
measuredAttribute: pIC50
# pIC50 = -log10(concentration in molar units)

Check out these entries, answers already filled in.
- molecule: "COCCN(CC(=O)O)C(=O)C(CCCN=C(N)N)NS(=O)(=O)c1ccc2cc3c(cc2c1)OCCO3 (stereo not drawn)"
  measurementTarget: "Prothrombin (Bos taurus, UniProt P00735)"
  assayValue: 4.24
- molecule: "CCCC1CCN(C(=O)C(CCCN=C(N)N)NS(=O)(=O)c2ccc3cc(OC)c(OC)cc3c2)C(C(=O)O)C1 (stereo not drawn)"
  measurementTarget: "Prothrombin (Bos taurus, UniProt P00735)"
  assayValue: 6.30

Name the recorded pIC50 of the item N=C(N)NCCCC(NS(=O)(=O)c1cccc2c1CCCC2)C(=O)N(CC(=O)O)CC1CCCO1 (stereo not drawn) in your answer. 5.19

* * *

IC50: recorded values
# measurementTarget: Prothrombin (Bos taurus)
# testDescription: Concentration at which the clotting time was prolonged by twice that of the control by inhibiting thrombin
# testSettings: read-out: I50
State the answer as a number, implicitly in µM.

- compound: "CC(C)C1CCN(C(=O)C(CCCN=C(N)N)NS(=O)(=O)c2ccc3ccccc3c2)C(C(=O)O)C1 (stereo unspecified)"
  endpointUnit: "µM"
  IC50: 50
- compound: "COCCN(CC(=O)O)C(=O)C(CCCN=C(N)N)NS(=O)(=O)c1cccc2cc(C)c(C)cc12 (stereo unspecified)"
  endpointUnit: "µM"
  IC50: 10

Dear colleague, please send me the reported IC50 for CC1CCN(C(=O)C(CCCN=C(N)N)NS(=O)(=O)c2cccc3c(N(C)C)cccc23)C(C(=O)O)C1 (stereo unspecified) when you can. 4

Please indicate IC50 recorded for COCCN(CC(=O)O)C(=O)C(CCCN=C(N)N)NS(=O)(=O)c1ccc2ccc(OC)cc2c1 (stereo unspecified) 0.5

For the compound CCCCN(CC(=O)O)C(=O)C(CCCN=C(N)N)NS(=O)(=O)c1ccc2ccc(OC)cc2c1 (stereo unspecified) , give its reported IC50. 0.5

Look up and report measured IC50 for this entry: COc1cc2ccc(S(=O)(=O)NC(CCCN=C(N)N)C(=O)N(CC(=O)O)CC3CCCO3)cc2cc1OC (stereo unspecified) 0.2

Identify measured IC50 corresponding to CC1CCN(C(=O)C(CCCN=C(N)N)NS(=O)(=O)c2ccc3c(c2)-c2ccccc2C3)C(C(=O)O)C1 (stereo unspecified) 0.1

Quick one: give measured IC50 for COCCN(CCCC(=O)O)C(=O)C(CCCN=C(N)N)NS(=O)(=O)c1ccc2cc(OC)c(OC)cc2c1 (stereo unspecified) 40

Tell us which IC50 value is on record for COc1cc2ccc(S(=O)(=O)NC(CCCN=C(N)N)C(=O)N(CCc3ccccc3)CC(=O)O)cc2cc1OC (stereo unspecified) 3
